# assay: Water solubility of peptides when preparing stock solutions
# Type: physicochemical
# settings: stock solution in sterile distilled water or 100% DMSO; read-out: solubility of peptide (water soluble or water insoluble, dissolved in DMSO)
Where a SMILES comes first, the peptide text is derived from it.
reported.property: solubility

Example compounds with recorded solubility:
CC[C@H](C)[C@H](NC(=O)[C@H](Cc1c[nH]cn1)NC(=O)CNC(=O)[C@H](CO)NC(=O)[C@H](CC(C)C)NC(=O)[C@H](CO)NC(=O)[C@H](CO)NC(=O)[C@@H](NC(=O)[C@@H](NC(=O)[C@@H](NC(=O)[C@H](CC(C)C)NC(=O)[C@H](CO)NC(=O)CNC(=O)[C@@H](N)[C@@H](C)O)C(C)C)[C@@H](C)CC)[C@@H](C)O)C(=O)N[C@@H](C)C(=O)O [Peptide 47.2.1, TGSLVITSSLSGHIA] (H-TGSLVITSSLSGHIA-OH) ... > 2500 µg/mL
CC[C@H](C)[C@H](NC(=O)[C@@H](N)CC(=O)O)C(=O)N[C@H](C(=O)N[C@@H](Cc1ccc(O)cc1)C(=O)N[C@H](C(=O)N[C@@H](C)C(=O)N[C@H](C(=O)N[C@@H](C)C(=O)N[C@H](C(=O)N[C@@H](CC(C)C)C(=O)N1CCC[C@H]1C(=O)N[C@@H](CC(N)=O)C(=O)N[C@@H](Cc1ccc(O)cc1)C(=O)N[C@H](C(=O)N[C@@H](CCCNC(=N)N)C(=O)O)C(C)C)[C@@H](C)O)[C@@H](C)O)C(C)C)[C@@H](C)O [Peptide 37.3.1, DITYVATATLPNYVR] (H-DITYVATATLPNYVR-OH) ... > 2500 µg/mL
CC(C)C[C@H](NC(=O)[C@@H](NC(=O)[C@H](C)NC(=O)[C@@H](N)[C@@H](C)O)[C@@H](C)O)C(=O)N1CCC[C@H]1C(=O)N[C@@H](CC(N)=O)C(=O)N[C@@H](Cc1ccc(O)cc1)C(=O)N[C@H](C(=O)N[C@@H](CCCNC(=N)N)C(=O)N[C@@H](C)C(=O)NCC(=O)NCC(=O)N[C@@H](CC(N)=O)C(=O)NCC(=O)N1CCC[C@H]1C(=O)O)C(C)C [Peptide 37.4.1, TATLPNYVRAGGNGP] (H-TATLPNYVRAGGNGP-OH) ... > 2500 µg/mL
CC(C)C[C@H](NC(=O)[C@@H](NC(=O)CNC(=O)[C@H](Cc1c[nH]c2ccccc12)NC(=O)CNC(=O)[C@H](C)NC(=O)CN)C(C)C)C(=O)N[C@H](C(=O)N[C@@H](CO)C(=O)N[C@@H](Cc1c[nH]cn1)C(=O)N[C@@H](CCCNC(=N)N)C(=O)N[C@@H](CO)C(=O)NCC(=O)N[C@@H](CCC(=O)O)C(=O)N[C@H](C(=O)O)[C@@H](C)O)C(C)C [Peptide 62.2.1, GAGWGVLVSHRSGET] (H-GAGWGVLVSHRSGET-OH) ... > 2500 µg/mL

**Q:** // solubility lookup, key: CC[C@H](C)[C@H](NC(=O)[C@H](Cc1ccccc1)NC(=O)[C@H](Cc1ccc(O)cc1)NC(=O)CNC(=O)[C@H](CCCCN)NC(=O)[C@@H](N)CC(=O)O)C(=O)N[C@@H](CCC(=O)O)C(=O)N1CCC[C@H]1C(=O)N[C@H](C(=O)N[C@H](C(=O)N[C@@H](Cc1ccccc1)C(=O)N[C@@H](CO)C(=O)N[C@@H](CC(N)=O)C(=O)N[C@H](C(=O)N[C@H](C(=O)O)[C@@H](C)O)C(C)C)[C@@H](C)CC)[C@@H](C)O [Peptide 70.2, DKGYFIEPTIFSNVT] (H-DKGYFIEPTIFSNVT-OH; N-terminus and C-terminus assumed)
**A:** < 2500 µg/mL

---

List of solubility values.
# assay: Water solubility of peptides when preparing stock solutions
# Assay type: physicochemical
# settings: stock solution in sterile distilled water or 100% DMSO; read-out: solubility of peptide (water soluble or water insoluble, dissolved in DMSO)
Where a SMILES comes first, the peptide text is derived from it.

Worked examples, 4 compounds total:
CC[C@H](C)[C@H](NC(=O)[C@H](CO)NC(=O)[C@@H](NC(=O)[C@@H](NC(=O)[C@H](CCCCN)NC(=O)[C@@H](NC(=O)[C@@H](N)CCC(N)=O)[C@@H](C)O)[C@@H](C)O)C(C)C)C(=O)N[C@@H](CCCNC(=N)N)C(=O)N[C@@H](CC(C)C)C(=O)NCC(=O)N[C@@H](CC(=O)O)C(=O)N[C@H](C(=O)N[C@@H](CC(C)C)C(=O)N[C@@H](Cc1ccccc1)C(=O)NCC(=O)O)C(C)C [Peptide 71.3, QTKTVSIRLGDVLFG] (H-QTKTVSIRLGDVLFG-OH) ... > 2500 µg/mL
CC(C)C[C@H](NC(=O)[C@H](C)NC(=O)[C@H](CCCCN)NC(=O)[C@H](CC(C)C)NC(=O)[C@H](CCCCN)NC(=O)[C@H](CCC(N)=O)NC(=O)[C@H](Cc1ccc(O)cc1)NC(=O)[C@@H](NC(=O)[C@H](CCC(=O)O)NC(=O)[C@H](C)N)C(C)C)C(=O)N[C@@H](C)C(=O)N[C@@H](CCCCN)C(=O)N[C@@H](CCCCN)C(=O)N[C@H](C(=O)N[C@@H](Cc1ccc(O)cc1)C(=O)O)[C@@H](C)O [Peptide 60.2, AEVYQKLKALAKKTY] (H-AEVYQKLKALAKKTY-OH) ... > 2500 µg/mL
CC(C)C[C@H](NC(=O)[C@@H](NC(=O)CNC(=O)[C@@H](NC(=O)[C@H](CO)NC(=O)[C@@H](NC(=O)[C@H](Cc1ccccc1)NC(=O)[C@@H](NC(=O)CNC(=O)[C@H](C)N)C(C)C)C(C)C)[C@@H](C)O)[C@@H](C)O)C(=O)NCC(=O)NCC(=O)NCC(=O)N[C@@H](CCC(N)=O)C(=O)N[C@@H](CCC(=O)O)C(=O)O [Peptide 45.2, AGVFVSTGTLGGGQE] (H-AGVFVSTGTLGGGQE-OH) ... < 2500 µg/mL
CC[C@H](C)[C@H](NC(=O)[C@H](CCCCN)NC(=O)[C@H](Cc1c[nH]c2ccccc12)NC(=O)[C@@H](NC(=O)[C@H](Cc1ccc(O)cc1)NC(=O)[C@@H](N)CC(=O)O)C(C)C)C(=O)N[C@@H](CO)C(=O)N[C@@H](CCC(=O)O)C(=O)N[C@@H](Cc1ccccc1)C(=O)N[C@@H](Cc1ccc(O)cc1)C(=O)NCC(=O)N[C@@H](CCCNC(=N)N)C(=O)N[C@@H](CCCCN)C(=O)N1CCC[C@H]1C(=O)N[C@@H](CCC(=O)O)C(=O)O [Peptide 34.3, DYVWKISEFYGRKPE] (H-DYVWKISEFYGRKPE-OH) ... > 2500 µg/mL

Next:
**Q:** Could you tell me which solubility is on file for CC[C@H](C)[C@H](N)C(=O)N[C@@H](C)C(=O)N[C@@H](CO)C(=O)N[C@@H](CC(C)C)C(=O)N[C@@H](Cc1ccccc1)C(=O)N[C@@H](C)C(=O)N[C@@H](C)C(=O)N[C@@H](C)C(=O)NCC(=O)N[C@@H](CC(C)C)C(=O)N[C@@H](C)C(=O)N[C@@H](C)C(=O)N[C@@H](C)C(=O)N[C@@H](C)C(=O)N1CCC[C@H]1C(=O)O [Peptide L6-2, IASLFAAAGLAAAAP] ?
**A:** < 2500 µg/mL

---

Measured solubility by item
# assay: Water solubility of peptides when preparing stock solutions
# Assay type: physicochemical
# settings: stock solution in sterile distilled water or 100% DMSO; read-out: solubility of peptide (water soluble or water insoluble, dissolved in DMSO)
Where a SMILES comes first, the peptide text is derived from it.

CC[C@H](C)[C@H](NC(=O)[C@@H](NC(=O)[C@@H](NC(=O)[C@H](CCCCN)NC(=O)CNC(=O)[C@@H](N)CCCCN)C(C)C)C(C)C)C(=O)N[C@H](C(=O)N[C@H](C(=O)NCC(=O)N[C@@H](C)C(=O)N[C@@H](CO)C(=O)NCC(=O)N1CCC[C@H]1C(=O)N[C@H](C(=O)NCC(=O)O)[C@@H](C)O)[C@@H](C)O)C(C)C [Peptide 46.2, KGKVVIVTGASGPTG] (H-KGKVVIVTGASGPTG-OH) ... > 2500 µg/mL
CC(C)C[C@H](NC(=O)[C@H](CCC(N)=O)NC(=O)[C@H](Cc1c[nH]c2ccccc12)NC(=O)[C@H](Cc1c[nH]cn1)NC(=O)[C@H](CC(C)C)NC(=O)[C@@H](NC(=O)[C@H](CC(N)=O)NC(=O)[C@H](Cc1ccc(O)cc1)NC(=O)[C@H](CO)NC(=O)[C@H](CC(N)=O)NC(=O)[C@@H](NC(=O)[C@H](Cc1c[nH]c2ccccc12)NC(=O)[C@@H](NC(=O)[C@@H](NC(=O)CN)[C@@H](C)O)C(C)C)C(C)C)[C@@H](C)O)C(=O)O [Peptide 72.2, GTVWVNSYNTLHWQL] (H-GTVWVNSYNTLHWQL-OH) ... < 2500 µg/mL
CC[C@H](C)[C@H](NC(=O)[C@@H](NC(=O)[C@@H](NC(=O)[C@H](CC(C)C)NC(=O)[C@H](CCCCN)NC(=O)[C@H](CO)NC(=O)[C@@H](N)CC(C)C)C(C)C)[C@@H](C)O)C(=O)N[C@@H](C)C(=O)N[C@@H](CCCCN)C(=O)N[C@H](C(=O)N[C@@H](CC(=O)O)C(=O)N[C@@H](C)C(=O)N[C@H](C(=O)N[C@@H](CC(C)C)C(=O)N[C@@H](CC(N)=O)C(=O)O)[C@@H](C)O)C(C)C [Peptide 56.2, LSKLVTIAKVDATLN] (H-LSKLVTIAKVDATLN-OH) ... > 2500 µg/mL
CC(C)C[C@H](NC(=O)CNC(=O)[C@H](C)NC(=O)[C@H](C)N)C(=O)N[C@@H](C)C(=O)N[C@@H](C)C(=O)N[C@@H](C)C(=O)N[C@@H](C)C(=O)N1CCC[C@H]1C(=O)N[C@@H](CC(C)C)C(=O)N[C@@H](CCC(=O)O)C(=O)N[C@@H](CO)C(=O)N[C@@H](CCCNC(=N)N)C(=O)N[C@@H](CCC(N)=O)C(=O)N[C@@H](CC(=O)O)C(=O)O [Peptide 33.2, AAGLAAAAPLESRQD] (H-AAGLAAAAPLESRQD-OH) ... > 2500 µg/mL
CC(C)C[C@H](NC(=O)[C@H](Cc1ccccc1)NC(=O)[C@H](CO)NC(=O)[C@H](CC(N)=O)NC(=O)[C@H](CCC(=O)O)NC(=O)CNC(=O)[C@@H](NC(=O)[C@H](CO)NC(=O)[C@H](Cc1ccc(O)cc1)NC(=O)[C@H](Cc1c[nH]c2ccccc12)NC(=O)[C@H](CCCCN)NC(=O)[C@H](Cc1c[nH]cn1)NC(=O)[C@@H](N)CC(=O)O)C(C)C)C(=O)N[C@@H](CC(=O)O)C(=O)N[C@@H](Cc1ccccc1)C(=O)O [Peptide L10-2.01, DHKWYSVGENSFLDF] (H-DHKWYSVGENSFLDF-OH) ... > 2500 µg/mL

**Q:** Which solubility is listed for CC[C@H](C)[C@H](NC(=O)[C@@H](NC(=O)[C@@H](NC(=O)[C@H](Cc1ccccc1)NC(=O)[C@H](CCC(N)=O)NC(=O)[C@@H](N)CC(C)C)[C@@H](C)O)[C@@H](C)O)C(=O)N[C@@H](C)C(=O)N[C@@H](CO)C(=O)N[C@@H](CC(C)C)C(=O)N[C@@H](Cc1ccccc1)C(=O)N[C@@H](C)C(=O)N[C@@H](C)C(=O)N[C@@H](C)C(=O)NCC(=O)N[C@@H](CC(C)C)C(=O)O [Peptide 32.2.1, LQFTTIASLFAAAGL] (H-LQFTTIASLFAAAGL-OH) ?
**A:** < 2500 µg/mL

**Q:** What value of solubility has been recorded for this entry: CC[C@H](C)[C@H](NC(=O)[C@H](CC(=O)O)NC(=O)[C@H](CC(=O)O)NC(=O)[C@H](CO)NC(=O)[C@@H](NC(=O)[C@H](CCCCN)NC(=O)[C@H](CCC(N)=O)NC(=O)[C@@H](N)CCCCN)C(C)C)C(=O)N[C@H](C(=O)N[C@@H](Cc1ccc(O)cc1)C(=O)N[C@H](C(=O)N[C@@H](C)C(=O)N[C@H](C(=O)N[C@@H](C)C(=O)N[C@H](C(=O)O)[C@@H](C)O)[C@@H](C)O)C(C)C)[C@@H](C)O [Peptide L10-3, KQKVSDDITYVATAT] (H-KQKVSDDITYVATAT-OH)
**A:** > 2500 µg/mL

**Q:** Please look up its solubility: CC(C)C[C@H](NC(=O)[C@H](C)NC(=O)[C@@H](NC(=O)[C@H](CCC(N)=O)NC(=O)[C@H](CC(N)=O)NC(=O)[C@@H](N)CCCCN)C(C)C)C(=O)N[C@@H](CC(N)=O)C(=O)N1CCC[C@H]1C(=O)N[C@H](C(=O)N[C@@H](CC(N)=O)C(=O)N[C@H](C(=O)N[C@H](C(=O)N[C@@H](Cc1ccccc1)C(=O)N[C@@H](CC(=O)O)C(=O)N[C@@H](C)C(=O)O)C(C)C)[C@@H](C)O)C(C)C [Peptide 51.2.1, KNQVALNPVNTVFDA] (H-KNQVALNPVNTVFDA-OH)
**A:** < 2500 µg/mL

**Q:** For the compound shown here, CC(C)C[C@H](NC(=O)[C@H](CCCCN)NC(=O)[C@H](CC(=O)O)NC(=O)[C@H](C)NC(=O)[C@H](CCC(N)=O)NC(=O)[C@H](C)NC(=O)[C@H](CO)NC(=O)[C@@H](NC(=O)[C@@H](NC(=O)[C@H](Cc1ccccc1)NC(=O)[C@H](CC(=O)O)NC(=O)[C@H](CC(C)C)NC(=O)[C@@H](NC(=O)CNC(=O)CN)[C@@H](C)O)[C@@H](C)O)C(C)C)C(=O)O [Peptide L10-1.01, GGTLDFTVSAQADKL] (H-GGTLDFTVSAQADKL-OH) , give the reported solubility.
**A:** > 2500 µg/mL
